# Target desc: T1, human IGF2^1-67 (mature insulin-like growth factor 2) (human, UniProt P01344 25-91, biotinylated (site not stated) where immobilised on the chip (Tables 1-4))
# T1 construct: mature; also called mature IGF2; biotinylated IGF2
# T1 sequence (P01344 25-91): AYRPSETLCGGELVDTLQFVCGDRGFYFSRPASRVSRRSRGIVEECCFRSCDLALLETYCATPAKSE
# Test: SPR kinetic, biotin-IGF2 on chip, pH 7.4
Entries whose Kd is below 5 nM take true; entries at or above 5 nM take false.

Binder: domain 11^AB5 G1603A (receptor, See m5) MKSNEHDDCQVTNPSTGHLFDLSSLSGRAGFTAAYAKGWGVYMSICGENENCPPGVGACFGQTRISVGKANKRLRYVDQVLQLVYKDGSPCPSKSALSYKSVISFVCRPEAGPTNRPMLISLDKQTCTLFFSWHTPLACEQATECSV
Category: false
--
Binder: domain 11^AB5 K1601R (receptor, See m5) MKSNEHDDCQVTNPSTGHLFDLSSLSGRAGFTAAYAKGWGVYMSICGENENCPPGVGACFGQTRISVGKANKRLRYVDQVLQLVYKDGSPCPSRSGLSYKSVISFVCRPEAGPTNRPMLISLDKQTCTLFFSWHTPLACEQATECSV
Category: true
--
Binder: domain 11^AB5 S1602N (receptor, See m5) MKSNEHDDCQVTNPSTGHLFDLSSLSGRAGFTAAYAKGWGVYMSICGENENCPPGVGACFGQTRISVGKANKRLRYVDQVLQLVYKDGSPCPSKNGLSYKSVISFVCRPEAGPTNRPMLISLDKQTCTLFFSWHTPLACEQATECSV
Category: true
--
Binder: domain 11^AB5 K1631W (receptor, See m5; HI loop mutant) MKSNEHDDCQVTNPSTGHLFDLSSLSGRAGFTAAYAKGWGVYMSICGENENCPPGVGACFGQTRISVGKANKRLRYVDQVLQLVYKDGSPCPSKSGLSYKSVISFVCRPEAGPTNRPMLISLDWQTCTLFFSWHTPLACEQATECSV
Category: true
--
Binder: domain 11^AB5 K1631A (receptor, See m5; HI loop mutant) MKSNEHDDCQVTNPSTGHLFDLSSLSGRAGFTAAYAKGWGVYMSICGENENCPPGVGACFGQTRISVGKANKRLRYVDQVLQLVYKDGSPCPSKSGLSYKSVISFVCRPEAGPTNRPMLISLDAQTCTLFFSWHTPLACEQATECSV
Category: false
--
Binder: domain 11^AB5 S1602A (receptor, See m5) MKSNEHDDCQVTNPSTGHLFDLSSLSGRAGFTAAYAKGWGVYMSICGENENCPPGVGACFGQTRISVGKANKRLRYVDQVLQLVYKDGSPCPSKAGLSYKSVISFVCRPEAGPTNRPMLISLDKQTCTLFFSWHTPLACEQATECSV
Category: false
--
Binder: domain 11^AB5 S1602Q (receptor, See m5) MKSNEHDDCQVTNPSTGHLFDLSSLSGRAGFTAAYAKGWGVYMSICGENENCPPGVGACFGQTRISVGKANKRLRYVDQVLQLVYKDGSPCPSKQGLSYKSVISFVCRPEAGPTNRPMLISLDKQTCTLFFSWHTPLACEQATECSV
Category: true
